- assay: Selectivity ratio of cytotoxicity against human HaCaT cells to MIC for methicillin-resistant Staphylococcus aureus USA100 NRS382
- Format: toxicity, cell-based
readout_name: selectivity ratio

### Prompt # lookup: selectivity ratio of Cc1nc(-c2ccc3ccccc3c2)sc1-c1cnc(NC(=N)N)s1
### Response 4 to 16

---

- assay: Selectivity ratio of cytotoxicity against human HaCaT cells to MIC for Staphylococcus aureus RN4220 NRS107
- Type: toxicity, cell-based
readout_name: selectivity ratio

### Prompt # lookup: selectivity ratio of Cc1nc(-c2ccc3ccccc3c2)sc1-c1cnc(NC(=N)N)s1
### Response 4 to 16
